FYI, the data here is from the supplement of paper PMC11246515.

assay: total protein half-life in vivo (active degradation + dilution); higher = more stable protein; details: E. coli NCM3722 delta-smpB; growth: N-lim chemostat; doubling time 6 h
Assign class by total protein half-life in vivo: not lower than 4 h means satisfied; lower than 4 h means not satisfied.

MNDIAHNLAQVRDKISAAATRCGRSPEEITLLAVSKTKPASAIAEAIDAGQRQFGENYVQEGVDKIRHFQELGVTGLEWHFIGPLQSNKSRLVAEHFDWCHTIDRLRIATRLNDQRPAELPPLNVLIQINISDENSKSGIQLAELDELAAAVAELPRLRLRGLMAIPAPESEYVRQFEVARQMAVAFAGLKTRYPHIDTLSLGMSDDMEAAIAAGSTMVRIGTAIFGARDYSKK: satisfied
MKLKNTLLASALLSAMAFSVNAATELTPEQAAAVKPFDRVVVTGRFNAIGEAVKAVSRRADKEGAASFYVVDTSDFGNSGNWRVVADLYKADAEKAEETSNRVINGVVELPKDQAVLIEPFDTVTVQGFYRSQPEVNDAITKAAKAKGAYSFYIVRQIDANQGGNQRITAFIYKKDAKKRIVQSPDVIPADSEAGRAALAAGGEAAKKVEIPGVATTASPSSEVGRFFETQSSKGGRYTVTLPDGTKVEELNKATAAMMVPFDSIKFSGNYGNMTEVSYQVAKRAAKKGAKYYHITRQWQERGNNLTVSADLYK: satisfied

Task: Hello, I need to know if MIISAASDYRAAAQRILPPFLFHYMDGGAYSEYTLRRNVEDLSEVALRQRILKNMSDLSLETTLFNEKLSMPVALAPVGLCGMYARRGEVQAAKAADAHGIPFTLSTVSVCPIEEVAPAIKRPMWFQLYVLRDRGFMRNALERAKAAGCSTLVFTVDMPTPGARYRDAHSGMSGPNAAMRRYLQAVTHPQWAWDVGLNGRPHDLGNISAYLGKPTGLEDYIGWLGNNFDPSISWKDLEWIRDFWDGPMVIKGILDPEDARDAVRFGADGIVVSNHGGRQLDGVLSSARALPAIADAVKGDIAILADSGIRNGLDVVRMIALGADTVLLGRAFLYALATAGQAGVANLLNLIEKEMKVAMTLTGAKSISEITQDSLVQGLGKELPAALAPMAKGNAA has measured total protein half-life in vivo not below 4 h. Thanks!
Result: not satisfied

Task: Threshold query (total protein half-life in vivo >= 4 h) on MTGQSSSQAATPIQWWKPALFFLVVIAGLWYVKWEPYYGKAFTAAETHSIGKSILAQADANPWQAALDYAMIYFLAVWKAAVLGVILGSLIQVLIPRDWLLRTLGQSRFRGTLLGTLFSLPGMMCTCCAAPVAAGMRRQQVSMGGALAFWMGNPVLNPATLVFMGFVLGWGFAAIRLVAGLVMVLLIATLVQKWVRETPQTQAPVEIDIPEAQGGFFSRWGRALWTLFWSTIPVYILAVLVLGAARVWLFPHADGAVDNSLMWVVAMAVAGCLFVIPTAAEIPIVQTMMLAGMGTAPALALLMTLPAVSLPSLIMLRKAFPAKALWLTGAMVAVSGVIVGGLALLF
Result: satisfied

====

Items are presented alongside their recorded total protein half-life in vivo.
assay: total protein half-life in vivo (active degradation + dilution); higher = more stable protein; details: E. coli NCM3722 delta-clpP; growth: N-lim chemostat; doubling time 6 h
Please give a number only; it is taken to be in h.

Would you please look over these solved cases?
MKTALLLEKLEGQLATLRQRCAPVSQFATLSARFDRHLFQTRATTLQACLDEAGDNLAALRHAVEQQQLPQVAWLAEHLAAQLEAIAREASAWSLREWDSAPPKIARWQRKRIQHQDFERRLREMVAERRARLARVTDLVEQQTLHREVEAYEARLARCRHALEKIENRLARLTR: 2.5
MAISSRNTLLAALAFIAFQAQAVNVTVAYQTSAEPAKVAQADNTFAKESGATVDWRKFDSGASIVRALASGDVQIGNLGSSPLAVAASQQVPIEVFLLASKLGNSEALVVKKTISKPEDLIGKRIAVPFISTTHYSLLAALKHWGIKPGQVEIVNLQPPAIIAAWQRGDIDGAYVWAPAVNALEKDGKVLTDSEQVGQWGAPTLDVWVVRKDFAEKHPEVVKAFAKSAIDAQQPYIANPDVWLKQPENISKLARLSGVPEGDVPGLVKGNTYLTPQQQTAELTGPVNKAIIDTAQFLKEQGKVPAVANDYSQYVTSRFVQ: 4.56
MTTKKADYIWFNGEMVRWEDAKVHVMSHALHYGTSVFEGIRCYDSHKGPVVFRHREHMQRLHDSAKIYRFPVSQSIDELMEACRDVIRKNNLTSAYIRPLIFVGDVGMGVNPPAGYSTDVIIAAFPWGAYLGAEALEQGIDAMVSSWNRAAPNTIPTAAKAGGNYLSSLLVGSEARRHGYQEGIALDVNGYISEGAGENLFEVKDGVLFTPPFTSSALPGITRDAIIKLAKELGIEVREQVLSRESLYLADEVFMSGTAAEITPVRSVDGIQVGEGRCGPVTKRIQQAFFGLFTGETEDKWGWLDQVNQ [P0AB80]: 4.25
MSTLEPAAQSKPPGGFKLWLSQLQMKHGRKLVIALPYIWLILLFLLPFLIVFKISLAEMARAIPPYTELMEWADGQLSITLNLGNFLQLTDDPLYFDAYLQSLQVAAISTFCCLLIGYPLAWAVAHSKPSTRNILLLLVILPSWTSFLIRVYAWMGILKNNGVLNNFLLWLGVIDQPLTILHTNLAVYIGIVYAYVPFMVLPIYTALIRIDYSLVEAALDLGARPLKTFFTVIVPLTKGGIIAGSMLVFIPAVGEFVIPELLGGPDSIMIGRVLWQEFFNNRDWPVASAVAIIMLLLLIVPIMWFHKHQQKSVGEHG: 4.75
MAGNTIGQLFRVTTFGESHGLALGCIVDGVPPGIPLTEADLQHDLDRRRPGTSRYTTQRREPDQVKILSGVFEGVTTGTSIGLLIENTDQRSQDYSAIKDVFRPGHADYTYEQKYGLRDYRGGGRSSARETAMRVAAGAIAKKYLAEKFGIEIRGCLTQMGDIPLDIKDWSQVEQNPFFCPDPDKIDALDELMRALKKEGDSIGAKVTVVASGVPAGLGEPVFDRLDADIAHALMSINAVKGVEIGDGFDVVALRGSQNRDEITKDGFQSNHAGGILGGISSGQQIIAHMALKPTSSITVPGRTINRFGEEVEMITKGRHDPCVGIRAVPIAEAMLAIVLMDHLLRQRAQNADVKTDIPRW: 5.29

Here is the next item to consider.
The value of total protein half-life in vivo measured for the sequence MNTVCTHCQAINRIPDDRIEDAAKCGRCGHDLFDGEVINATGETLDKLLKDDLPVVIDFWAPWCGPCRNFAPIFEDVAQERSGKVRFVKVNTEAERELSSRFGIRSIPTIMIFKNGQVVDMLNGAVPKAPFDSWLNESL [P0AGG4] turned out to be 2.89
